- Experimental Conditions: pH 6.8
The entries below come with measured aqueous solubility values attached.
Outcome Measure: aqueous solubility (µg/mL)

>>> print(df.to_string())
                                    compound  measured_value
 0  Nc1ccc(Cl)c(NC2=NN(c3c(Cl)cc(Cl)cc3Cl)C(=O)C2)c1            14.1
 1      Cc1cccc(NCC2CCN(C(=O)c3ccccc3)CC2)n1            28.5
 2    COc1ccc(C(C)(C)C)cc1NC(=O)C1(C#N)CCCC1             0.3
 3        CC(C)(C)C(=O)N1CCC(NS(C)(=O)=O)CC1            56.9
 4  O=C(CCOc1ccccc1)N1CCCC(c2n[nH]cc2-c2ccc(Cl)cc2)C1 (stereo unspecified)             0.8
 5  c1ccc(CO[C@@H]2CCC[C@H]2n2cc(-c3nccs3)nn2)cc1            15.7
 6  Cc1ccc(-c2nc(CN3CCOCC3)n(Cc3ccc(F)cc3)n2)o1            28.9
 7     COCc1ccccc1CNc1ccc2nnc(-c3ccccc3)n2n1             2.8
 8              O=C(NCc1ccccn1)c1ccc(F)cc1Cl            39.2
 9        CN(Cc1cnn(C)c1)c1ncnc2c1oc1ccccc12            42.5
10  CC(C)c1noc2nc(C3CC3)cc(C(=O)N3CC[C@H](N)C3)c12            34.1
11        O=C(Cc1csc(-c2ccccn2)n1)NC1CCCCCC1            11.4
12  COc1cccc(-c2nnn(-c3ncnc4sc5c(c34)CCC5)n2)c1            0.26
13  C=CC(=O)N1CCC(CNc2ncnc(N)c2-c2ccc(Oc3ccccc3)cc2)CC1            10.1
14  Cc1nc2cc(C(=O)N3CCc4nc5ccccc5c(=O)n4CC3)ccc2n1C            67.3
15            Cc1cnn(C2CN(CC3(O)CCCCC3)C2)c1            32.6
16  COc1ccc(CNc2ncc(-c3ccc4c(c3)OCO4)n2C)c(OC)c1            42.5
17  COc1ccccc1-c1nnc([C@H]2CCN(Cc3ccccc3C)C2)o1              37
18  C[C@@H](CN1CCC2(CC1)C(=O)NCN2c1cccc(F)c1)NC(=O)c1ccc(Br)cc1            3.85
19   COc1ccc(CN2CCN(c3cc(C)nc(N)n3)CC2)cc1OC            53.6
20     CCN(c1ccc(C(C)C)cc1)S(=O)(=O)c1ccccc1            0.65
21              COc1ccc(CN(C)c2ncncc2Br)cc1O            55.6
22  CCCn1c(=O)[nH]c2nc(-c3ccc(S(=O)(=O)O)cc3)[nH]c2c1=O            52.1
23        c1cnc(N2CC(c3nc4ccccc4[nH]3)C2)nc1              35
24  COc1ccc(Oc2cc(C)c(-c3csc(NC(=O)c4ccncc4)n3)c(C)c2)cc1            0.31
25  Cc1nnc(CN(C)CC(C)Oc2ccc(Cl)c(Cl)c2)n1C (stereo unspecified)              33
26           N#Cc1nncn1CC(=O)Nc1ccc2ccccc2c1            22.8
27  COc1ccccc1CNC(=O)c1cnc(C2CCN(C(=O)C(C)(C)C)CC2)nc1C            69.7
28    CSCC(=O)N1CCc2[nH]nc(-c3cccc(F)c3)c2C1            49.5
29  COc1cccc(CN2CCN(C(=O)Cc3ccc(C)cc3)[C@@H](C)C2)c1              44
30              O=C(NCc1ccc(O)cc1)Nc1ccncc1F            37.8
31          COc1ccc2c(-c3ccccc3)cc3nnnn3c2c1            0.15
32               COc1ccc(-c2c(C)n[nH]c2C)cn1            14.7
33  Nc1ncnc2c1ncn2[C@@H]1O[C@H](CO)[C@@H](O)[C@@H]1O            54.7
34         O=c1ccc(-c2ccc(F)cc2)nn1Cc1ccncc1              46
35  CC(C)n1cc(-c2ccc3c(c2)N(C)CC3)c2c(NS(=O)(=O)c3ccn(C)n3)ccnc21            19.4
